Tested on: left atrial muscle
protocol.description: Test Method 1: enhancement of contracting force of left atrial muscle extirpated from a guinea pig (electrically stimulated at 1 Hz)
Format: cell-based
condition.context: Cavia porcellus, Krebs-Henseleit solution 32° C., read-out: EC20 (molar concentration for enhancing the left atrial muscle contracting force to the level of 20%)

{"columns": ["chemical.string", "assay.target", "EC20 / µM"],
 "data": [
  ["CCOc1cc2c(cc1OC)c(=O)cc(-c1ccco1)n2CC", "left atrial muscle", 1.68],
  ["CCCCn1ccc(=O)c2cc(OC)c(OCC)cc21", "left atrial muscle", 2.82],
  ["CCOc1cc2c(cc1OC)c(=O)cc(-c1cccnc1)n2CC", "left atrial muscle", 6.46],
  ["CCOc1cc2c(=O)cc(C3CC3)[nH]c2cc1OC", "left atrial muscle", 37.6],
  ["COc1cc(C)c2[nH]ccc(=O)c2c1", "left atrial muscle", 12.4],
  ["CCOC(=O)c1c[nH]c2c(S(=O)(=O)c3ccccc3)cccc2c1=O", "left atrial muscle", 19.5],
  ["COc1ccc(C)c2c(=O)c(C(=O)N3CCC(c4ccccc4)CC3)c[nH]c12", "left atrial muscle", 102],
  ["CCn1ccc(=O)c2cc(C)ccc21", "left atrial muscle", 12.3],
  ["CCOc1cc2c(=O)ccn(CC)c2cc1OC", "left atrial muscle", 16.8]
]}

---

Test system: left atrial muscle
protocol.description: Test Method 1: enhancement of contracting force of left atrial muscle extirpated from a guinea pig (electrically stimulated at 1 Hz)
Assay type: cell-based
condition.context: Cavia porcellus, Krebs-Henseleit solution 32° C., read-out: EC20 (molar concentration for enhancing the left atrial muscle contracting force to the level of 20%)
Procedure: The drug according to the present invention was evaluated with reference to the physiological activities by means of a method using an atrial muscle extirpated from a guinea pig. Male guinea pigs having a body weight of 300-500 g were made swooned by striking his head and were bleeded to death. The heart was extirpated and the right and left atrial muscles were cut off. The tops of each atrial muscle were fixed with cerrefines. […]
EC20 for assorted molecules
attribute.measured: EC20 (µM)

{"columns": ["molecule", "attribute.measured", "bound.operator", "test.value"],
 "data": [
  ["COc1ccc2[nH]ccc(=O)c2c1OCc1ccccc1 [Compound 4, 5-benzyloxy-6-methoxy-4(1H)-quinolone]", "EC20", "=", 1000],
  ["CCn1c(-c2cccs2)cc(=O)c2ccccc21 [Compound 97, 1-ethyl-2-(2-thienyl)-4(1H)-quinolone]", "EC20", "=", 4.52],
  ["COC(=O)c1cn(C)c2cc(OC)c(OC)cc2c1=O [Compound 32]", "EC20", "=", 40.7],
  ["CCOc1cc2c(=O)cc[nH]c2cc1OC [Compound 48, 6-ethoxy-7-methoxy-4(1H)-quinolone]", "EC20", "=", 12.6],
  ["C=CCn1c(-c2cccs2)cc(=O)c2cc(OC)c(OCC)cc21 [Compound 116]", "EC20", "=", 15.3],
  ["O=c1cc(C2CC2)[nH]c2ccccc12 [Compound 96, 2-cyclopropyl-4(1H)-quinolone]", "EC20", "=", 123],
  ["COc1ccc(-c2ccccc2)c2c(=O)c(C(=O)O)c[nH]c12 [Compound 91]", "EC20", "=", 13.3],
  ["CCOc1cc2c(cc1OC)c(=O)c(C(=O)O)cn2C [Compound 92]", "EC20", "=", 4.73],
  ["C=CCOc1cc2[nH]ccc(=O)c2cc1OC [Compound 53, 7-allyloxy-6-methoxy-4(1H)-quinolone]", "EC20", "<", 100],
  ["CCOc1cc2[nH]c(C3CC3)cc(=O)c2cc1OC [Compound 98]", "EC20", "=", 5.96],
  ["CCOC(=O)c1c[nH]c2c(OC)cccc2c1=O [Compound 35]", "EC20", "=", 26],
  ["O=c1cc[nH]c2ccc(CCO)cc12 [Compound 64, 6-(2-hydroxy)ethyl-4(1H)-quinolone]", "EC20", "=", 157],
  ["COc1ccc(Cn2c(C3CC3)cc(=O)c3cc(OC)c(OC)cc32)cc1 [Compound 104]", "EC20", "=", 11.5],
  ["CC(=O)c1cccc2c(=O)cc[nH]c12 [Compound 44, 8-acetyl-4(1H)-quinolone]", "EC20", "<", 100],
  ["COc1cc2[nH]c(C3CC3)cc(=O)c2cc1OC [Compound 95]", "EC20", "=", 1.78],
  ["CCOC(=O)c1cn(CC)c2cc(OCC)c(OC)cc2c1=O [Compound 34]", "EC20", "=", 6.46],
  ["N#CCc1ccc2[nH]ccc(=O)c2c1 [Compound 45, 6-cyanomethyl-4(1H)-quinolone]", "EC20", "<", 100],
  ["CCn1ccc(=O)c2c(O)ccc(C)c21 [Compound 61]", "EC20", "<", 100]
]}
